Measured pKi values are reported for all entries that follow.
Biological target: blood-brain barrier choline transporter
Format: in vivo, rat
Details: Table 8; single inhibitor concentration 10 or 250 μM; mean (standard error); read-out: Ki, affinity for the blood brain barrier choline transporter
Bear in mind: pKi is minus log10 of a mol/L concentration; give just that figure.

Solved cases (2 shown):
### Prompt Report measured pKi; entry is CCCCCCCC[N+](C)(C)CCO [N-n-Octylcholine, reference compound]
### Response 5.77

### Prompt Report measured pKi; entry is CCCCCC[N+](C)(C)CCO [N-n-Hexylcholine, reference compound]
### Response 5.66

Moving on to another compound below.
### Prompt Report measured pKi; entry is CCCCCCCC[n+]1ccccc1 [N-n-Octylpyridinium iodide]
### Response 4.49

----------
Target: α7* nAChRs (Rattus norvegicus)
Conditions: read-out: [^3H]MLA Binding Ki; Table 11
resultType: Ki (nM)
Report the value in nM with no unit label.

Solved cases (2 shown):
### Prompt Report measured Ki; entry is [Br-].[Br-].c1cc[n+](CCCCCCCCCCCC[n+]2ccccc2)cc1
### Response 33000

### Prompt Report measured Ki; entry is c1ccc2c[n+](CCCCCCCCCCCC[n+]3ccc4ccccc4c3)ccc2c1
### Response 2210

Moving on to another compound below.
### Prompt Report measured Ki; entry is c1ccc2c(c1)ccc[n+]2CCCCCCCCCCCC[n+]1cccc2ccccc21
### Response 1610

----------
Target: α4β2* nAChRs (Rattus norvegicus, UniProt P09483+P12390)
Sequence (P09483 31-630): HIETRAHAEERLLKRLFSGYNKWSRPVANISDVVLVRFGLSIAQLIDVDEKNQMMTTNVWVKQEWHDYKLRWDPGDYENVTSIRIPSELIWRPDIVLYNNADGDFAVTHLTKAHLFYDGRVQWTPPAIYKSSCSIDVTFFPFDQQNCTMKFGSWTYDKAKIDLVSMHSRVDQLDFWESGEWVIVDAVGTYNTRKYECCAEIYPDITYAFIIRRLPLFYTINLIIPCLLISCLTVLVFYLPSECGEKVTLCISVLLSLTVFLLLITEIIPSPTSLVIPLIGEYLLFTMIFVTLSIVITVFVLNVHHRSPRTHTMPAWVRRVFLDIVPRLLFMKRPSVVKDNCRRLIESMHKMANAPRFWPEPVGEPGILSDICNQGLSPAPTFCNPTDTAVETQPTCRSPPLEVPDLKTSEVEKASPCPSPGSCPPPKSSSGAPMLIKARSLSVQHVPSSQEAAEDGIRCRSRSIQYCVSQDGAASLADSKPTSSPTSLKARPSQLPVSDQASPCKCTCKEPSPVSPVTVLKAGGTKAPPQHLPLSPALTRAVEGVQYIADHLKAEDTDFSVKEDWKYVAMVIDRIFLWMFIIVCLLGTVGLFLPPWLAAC
Sequence (P12390 25-500): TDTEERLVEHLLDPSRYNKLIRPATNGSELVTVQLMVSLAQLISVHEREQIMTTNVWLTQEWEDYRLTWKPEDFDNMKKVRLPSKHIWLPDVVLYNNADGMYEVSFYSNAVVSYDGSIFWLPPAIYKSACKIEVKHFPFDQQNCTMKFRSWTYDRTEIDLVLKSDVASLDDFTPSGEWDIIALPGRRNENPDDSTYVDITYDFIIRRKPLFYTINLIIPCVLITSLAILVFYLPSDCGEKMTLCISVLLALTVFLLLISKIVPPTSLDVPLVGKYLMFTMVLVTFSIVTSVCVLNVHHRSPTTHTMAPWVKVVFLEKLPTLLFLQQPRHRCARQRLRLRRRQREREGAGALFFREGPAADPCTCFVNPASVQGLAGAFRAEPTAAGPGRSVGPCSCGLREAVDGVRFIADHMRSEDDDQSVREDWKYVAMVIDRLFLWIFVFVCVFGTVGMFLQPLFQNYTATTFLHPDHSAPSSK
resultType: Ki (µM)
Report the value in µM with no unit label.

### Prompt Please look at CCCCCCCCCCCC[n+]1cccc(C2CCCN2C)c1 (stereo not shown) and tell me its recorded Ki on α4β2* nAChRs (Rattus norvegicus, UniProt P09483+P12390).
### Response 0.14

----------
Measured Ki values are reported for all entries that follow.
Target: blood-brain barrier choline transporter
Assay type: in vivo, rat
Settings: read-out: apparent Ki, inhibition of [^3H]-choline uptake into brain
Report the value in µM with no unit label.

### Prompt Report measured Ki; entry is CCCC[n+]1cccc(C2CCCN2C)c1 (stereo not drawn) [NBNI]
### Response 777

Moving on to another compound below.
### Prompt Report measured Ki; entry is CCCCCCCCCC[n+]1cccc(C2CCCN2C)c1 (stereo not drawn) [NDNI]
### Response 27

----------
Target: α7* nAChRs (Rattus norvegicus, UniProt Q05941)
Sequence (Q05941 23-502): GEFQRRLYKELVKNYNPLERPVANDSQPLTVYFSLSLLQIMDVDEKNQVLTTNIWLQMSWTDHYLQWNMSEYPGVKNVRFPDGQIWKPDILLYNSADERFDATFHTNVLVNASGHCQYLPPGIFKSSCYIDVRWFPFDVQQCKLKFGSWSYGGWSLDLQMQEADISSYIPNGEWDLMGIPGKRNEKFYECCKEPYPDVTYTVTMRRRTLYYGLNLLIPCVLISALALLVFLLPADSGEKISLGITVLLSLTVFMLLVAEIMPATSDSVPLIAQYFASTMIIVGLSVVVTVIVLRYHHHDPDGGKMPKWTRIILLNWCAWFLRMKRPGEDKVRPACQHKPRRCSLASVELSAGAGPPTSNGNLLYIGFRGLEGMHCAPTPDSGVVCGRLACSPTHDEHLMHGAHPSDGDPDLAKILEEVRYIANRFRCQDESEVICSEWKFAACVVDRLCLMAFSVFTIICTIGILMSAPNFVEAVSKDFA
Details: read-out: [^3H]MLA Binding Ki; Table 4; mean (95% confidence interval)
resultType: pKi
Bear in mind: pKi is minus log10 of a mol/L concentration; give just that figure.

### Prompt Report measured pKi; entry is CCCCCCCC[n+]1cccc([C@@H]2CCCN2C)c1.[I-]
### Response 4.92

----------
Target: Rat Striatal Nicotinic Acetylcholine Receptors ([^3H]nicotine binding sites) (Rattus norvegicus, UniProt P09483+P12390)
Construct: Striata from two rats were dissected, pooled, and homogenized; from tissue; host or cells: rat striatum membranes
Sequence (P09483 31-630): as the sequence (P09483 31-630) above
Sequence (P12390 25-500): as the sequence (P12390 25-500) above
Assay: biochemical
Conditions: rat striatal membranes, 3 nM [^3H]-nicotine; read-out: Ki, specific binding of [^3H]-nicotine
resultType: pKi
Bear in mind: pKi is minus log10 of a mol/L concentration; give just that figure.

### Prompt Report measured pKi; entry is c1ccc2c(c1)ccc[n+]2CCCCCCCCC[n+]1cccc2ccccc21
### Response 4.70

Others:
### Prompt Report measured pKi; entry is CN1CCC[C@H]1c1ccc[n+](CCCCCCCCCCC[n+]2cccc([C@@H]3CCCN3C)c2)c1
### Response 6.43

### Prompt Report measured pKi; entry is [Br-].[Br-].c1cc[n+](CCCCCCCCCCCC[n+]2ccccc2)cc1
### Response 5.04

### Prompt Report measured pKi; entry is c1cc[n+](CCCCCCCC[n+]2ccccc2)cc1
### Response 4.47
